Tested system: ΔF508-CFTR (Homo sapiens, UniProt P13569, DEL508-508)
Construct: host or cells: CFBE41o-, doxycycline-inducible
Sequence (P13569 with tags, fused parts or gaps DEL508-508): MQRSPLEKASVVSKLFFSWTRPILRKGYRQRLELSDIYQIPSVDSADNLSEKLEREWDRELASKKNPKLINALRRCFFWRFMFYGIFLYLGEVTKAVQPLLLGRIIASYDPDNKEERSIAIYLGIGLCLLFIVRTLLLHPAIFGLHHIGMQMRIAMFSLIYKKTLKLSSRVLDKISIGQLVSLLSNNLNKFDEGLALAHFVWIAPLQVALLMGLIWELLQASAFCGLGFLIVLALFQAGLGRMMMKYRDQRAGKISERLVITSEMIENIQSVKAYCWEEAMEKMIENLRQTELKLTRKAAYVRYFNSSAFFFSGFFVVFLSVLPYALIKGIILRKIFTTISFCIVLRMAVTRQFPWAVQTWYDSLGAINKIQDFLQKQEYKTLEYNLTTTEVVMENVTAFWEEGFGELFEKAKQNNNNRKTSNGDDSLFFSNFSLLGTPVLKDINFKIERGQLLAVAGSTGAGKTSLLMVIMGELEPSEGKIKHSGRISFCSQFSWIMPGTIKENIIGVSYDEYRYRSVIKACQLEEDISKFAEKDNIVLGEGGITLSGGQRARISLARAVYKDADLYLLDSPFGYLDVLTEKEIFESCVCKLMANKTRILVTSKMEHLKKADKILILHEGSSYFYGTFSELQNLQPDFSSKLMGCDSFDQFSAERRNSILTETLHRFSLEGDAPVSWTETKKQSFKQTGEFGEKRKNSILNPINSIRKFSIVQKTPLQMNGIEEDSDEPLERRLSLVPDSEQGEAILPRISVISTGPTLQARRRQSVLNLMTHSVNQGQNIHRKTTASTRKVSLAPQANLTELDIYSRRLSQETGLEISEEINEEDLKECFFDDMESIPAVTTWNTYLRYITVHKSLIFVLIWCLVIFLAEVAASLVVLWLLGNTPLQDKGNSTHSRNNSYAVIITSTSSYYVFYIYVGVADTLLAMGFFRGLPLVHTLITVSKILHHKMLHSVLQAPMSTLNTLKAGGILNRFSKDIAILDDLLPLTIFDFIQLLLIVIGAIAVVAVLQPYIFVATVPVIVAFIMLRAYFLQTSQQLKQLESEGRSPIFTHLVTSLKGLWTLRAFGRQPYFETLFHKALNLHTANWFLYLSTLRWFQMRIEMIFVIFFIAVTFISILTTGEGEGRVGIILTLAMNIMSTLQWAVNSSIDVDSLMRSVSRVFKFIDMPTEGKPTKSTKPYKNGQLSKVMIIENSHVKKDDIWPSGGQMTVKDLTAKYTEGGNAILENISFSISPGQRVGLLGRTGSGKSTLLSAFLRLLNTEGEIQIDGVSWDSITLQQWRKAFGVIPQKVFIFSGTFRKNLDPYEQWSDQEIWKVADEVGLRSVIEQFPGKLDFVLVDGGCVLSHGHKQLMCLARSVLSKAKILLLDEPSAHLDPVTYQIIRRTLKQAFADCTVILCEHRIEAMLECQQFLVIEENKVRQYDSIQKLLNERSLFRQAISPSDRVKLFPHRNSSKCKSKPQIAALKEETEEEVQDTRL
Assay: CFTR cell surface levels using HRP-tagged ΔF508-CFTR expressing CFBE cells, in the presence of a co-corrector
Assay type: cell-based
Condition summary: HRP-tagged ΔF508-CFTR CFBE cells, in the presence of 3 μM co-corrector; read-out: EC50
pEC50: −log10 of the molar value.
Property label: pEC50

INSERT INTO results (molecule, tested_system, property_label, result) VALUES
  ('CCCN(C)S(=O)(=O)NC(=O)c1cc(N2CCC(N3CCOCC3)CC2)c2c(C3CCC3)nn(-c3ccccc3)c2n1', 'ΔF508-CFTR (Homo sapiens, UniProt P13569, DEL508-508)', 'pEC50', 7.18),
  ('CS(=O)(=O)NC(=O)c1cc(C2CCN(CC3CCOCC3)CC2)c2c(C3CCC3)nn(-c3ccc(F)cc3)c2n1', 'ΔF508-CFTR (Homo sapiens, UniProt P13569, DEL508-508)', 'pEC50', 5.79),
  ('CC(C)c1nn(C2CCCCC2)c2nc(C(=O)NS(C)(=O)=O)cc(-c3ccc(N(C)C4CCOC4)nc3)c12 (stereo not drawn)', 'ΔF508-CFTR (Homo sapiens, UniProt P13569, DEL508-508)', 'pEC50', 6.55),
  ('CN(C)S(=O)(=O)NC(=O)c1cc(OCC2CCN(C3CCC3)CC2)c2c(C3CCC3)nn(-c3ccc(F)cc3)c2n1', 'ΔF508-CFTR (Homo sapiens, UniProt P13569, DEL508-508)', 'pEC50', 6.01),
  ('COCC1CCN(c2cc(C(=O)NS(=O)(=O)CC(N)=O)nc3c2c(C2CCC2)nn3-c2ccccc2)CC1', 'ΔF508-CFTR (Homo sapiens, UniProt P13569, DEL508-508)', 'pEC50', 5.84),
  ('COS(=O)(=O)NC(=O)c1cc(N2CCC(N3CCOCC3)CC2)c2c(C3CCC3)nn(-c3ccc(F)cc3)c2n1', 'ΔF508-CFTR (Homo sapiens, UniProt P13569, DEL508-508)', 'pEC50', 6.33),
  ('CC(C)c1nn(-c2ccc(F)cc2)c2nc(C(=O)NS(C)(=O)=O)cc(OCCN(C(C)C)C3COC3)c12', 'ΔF508-CFTR (Homo sapiens, UniProt P13569, DEL508-508)', 'pEC50', 6.65),
  ('CC(C)c1nn(-c2cccc(N(C)C)n2)c2nc(C(=O)NS(C)(=O)=O)cc(-c3ccc(N4CCOCC4)cc3)c12', 'ΔF508-CFTR (Homo sapiens, UniProt P13569, DEL508-508)', 'pEC50', 6.33),
  ('CS(=O)(=O)NC(=O)c1cc(OCC2CCOCC2)c2c(C3CCC3)nn(-c3ccccc3)c2n1', 'ΔF508-CFTR (Homo sapiens, UniProt P13569, DEL508-508)', 'pEC50', 7.02);
